# target-or-system: RSV F protein of recombinant mKate-RSV, subtype A (strain A2) (Respiratory syncytial virus subtype A …, UniProt P03420 26-574)
# assay-overview: cell-based or functional assay
recorded-endpoint: Neut IC50 subtype A (mg/L)
// return numeric value only (unit: mg/L, not printed)

Sample answers from the record:
1) ADI-14507 (antibody, V domains shown, full-length IgG (yeast-expressed); also called Antibody Number 68; Ab# 68) VH: QITLKESGPTLVKPTQTLTLTCTLSGFSLSTPRMGVGWIRQPPGKALEWLALIDWDDDRRYSPSLKTRLTITKDTSKNQVVLRMTDMDPVDTGTYYCVHSDVYTTGGYYLYYFDYWGQGTLVTVSS VL: DIQVTQSPSSLSASVGDRVTITCRASQTIPSYLNWYQHKPGKAPQLLIYAASNLRSGVPPRFRGSGSGTDFTLTVSSLQPEDFATYFCQQSYSSPYTFGQGTKLEIK; 0.319
2) ADI-14525 (antibody, V domains shown, full-length IgG (yeast-expressed); also called Antibody Number 85; Ab# 85) VH: EVQLLESGGGVVQPGRSLRLSCTASGFTFSDHAMYWVRQAPGKGLEWVALISFDGRNIYYADSVKGRFTISRDNSKNTLYLQMNSLRAEDTAVYYCARDQWLVPDYWGQGTLVTVSS VL: QSVLIQPASVSGSPGQSITISCTGTSSDVGGYNYVSWYQQHPGNAPKLMIYEVSKRPSGVPDRFSGFKSGNTASLTVSGLQAEDEADYYCSSYAGSNSVFGTGTQLTVL; 0.135

Query: # get_value(readout='Neut IC50 subtype A', item= ADI-14461 (antibody, V domains shown, full-length IgG (yeast-expressed); also called Antibody Number 24; Ab# 24) VH: EVQLVESGGGVVQPGRSLRLSCAASGFTFSDHAMYWVRQAPGKGLEWVALISFDGRNIYYADSVKGRFTISRDNSKNTLYLQMNSLRAEDTAVYYCARDQWLVPDYWGQGTLVTVSS VL: LPVLTQPASVSGSPGQSITISCTGTSSDVGGYNYVSWYQQHPGNAPKLMIYEVSKRPSGVPDRFSGFKSGNTASLTVSGLQAEDEADYYCSSYAGSNSVFGTGTKLTVL )
Result: 0.129
